# reported Kd; entries follow
measurement_target: T1, human DLL4 extracellular domain (human, UniProt Q9NR61 27-529)
T1 construct: purified recombinant ECD; biotin-labelled or 6xHis-tagged depending on the assay; also called huDLL4 ECD; hu DLL4 ECD
T1 sequence (Q9NR61 27-529 limits assumed): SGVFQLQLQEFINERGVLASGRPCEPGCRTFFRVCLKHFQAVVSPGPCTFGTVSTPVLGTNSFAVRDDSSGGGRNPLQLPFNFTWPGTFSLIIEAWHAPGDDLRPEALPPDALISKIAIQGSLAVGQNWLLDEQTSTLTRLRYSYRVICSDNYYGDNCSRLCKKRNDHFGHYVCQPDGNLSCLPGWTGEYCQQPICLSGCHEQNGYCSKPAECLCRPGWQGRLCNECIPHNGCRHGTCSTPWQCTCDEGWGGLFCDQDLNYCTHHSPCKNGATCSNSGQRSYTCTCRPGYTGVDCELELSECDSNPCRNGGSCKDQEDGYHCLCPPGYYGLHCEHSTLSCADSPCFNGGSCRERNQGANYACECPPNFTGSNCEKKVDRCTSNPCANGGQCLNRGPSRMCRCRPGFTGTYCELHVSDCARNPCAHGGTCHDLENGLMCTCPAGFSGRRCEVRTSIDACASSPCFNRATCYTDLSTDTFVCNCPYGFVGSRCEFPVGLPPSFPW
assay_summary: SPR (Biacore)
Numbers only here, please. The scale is nM.

Consider the worked cases shown below.
response.value for h1A11.10 (antibody, V domains shown, humanized IgG; also called VH.1b/VL.1a 1A11) VH: EVQLVESGGGLVQPGGSLRLSCAASGFTFSNFPMAWVRQAPGKGLEWVATISSSDGTTYYRDSVKGRFTISRDNAKNSLYLQMNSLRAEDTAVYYCSRGYYNSPFAYWGQGTLVTVSS VL: DIQMTQSPSSLSASVGDRVTITCRASEDIYSNLAWYQQKPGKSPKLLIFDTNNLADGVPSRFSGSGSGTDSTLTISSLQPEDFATYFCQQYNNYPPTFGQGTKLEIKR (field: Kd) = 13

// Kd lookup, binder = h1A11.3 (antibody, V domains shown, humanized IgG; also called VH.1/VL.1b 1A11) VH: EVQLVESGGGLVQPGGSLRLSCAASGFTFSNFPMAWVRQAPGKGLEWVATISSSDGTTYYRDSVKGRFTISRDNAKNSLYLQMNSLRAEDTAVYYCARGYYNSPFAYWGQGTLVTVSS VL: DIQMTQSPSSLSASVGDRVTITCRASEDIYSNLAWYQQKPGKAPKLLIFDTNNLADGVPSRFSGSGSGTDFTLTISSLQPEDFATYYCQQYNNYPPTFGQGTKLEIKR , result: 15

# Kd of h1A11.1 (antibody, V domains shown, humanized IgG; also called hu1A11.1; VH.1/VL.1 1A11) VH: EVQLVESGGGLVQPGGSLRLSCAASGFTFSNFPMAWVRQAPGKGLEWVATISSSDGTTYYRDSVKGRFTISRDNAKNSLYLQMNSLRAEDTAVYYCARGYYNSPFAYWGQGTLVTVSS VL: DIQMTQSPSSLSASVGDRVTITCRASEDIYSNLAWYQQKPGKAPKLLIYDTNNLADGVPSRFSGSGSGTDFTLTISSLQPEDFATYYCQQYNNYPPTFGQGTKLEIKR = 15

Entry under test: h1A11.5 (antibody, V domains shown, humanized IgG; also called VH.1a/VL.1 1A11) VH: EVQLVESGGGLVQPGGSLRLSCAASGFTFSNFPMAWVRQAPGKGLEWVATISSSDGTTYYRDSVKGRFTISRDNAKSSLYLQMNSLRAEDTAVYYCSRGYYNSPFAYWGQGTLVTVSS VL: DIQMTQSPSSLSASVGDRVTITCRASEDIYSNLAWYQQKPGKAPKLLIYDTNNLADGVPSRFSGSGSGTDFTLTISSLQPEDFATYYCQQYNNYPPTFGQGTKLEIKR . Its Kd was 9.6

Okay, next one:
Record h1A11.14 (antibody, V domains shown, humanized IgG; also called VH.2a/VL.1a 1A11) VH: EVQLVESGGGLVQPGGSLRLSCAASGFTFSNFPMAWVRQAPGKGLEWVATISSSDGTTYYRDSVKGRFTISRDNSKSTLYLQMNSLRAEDTAVYYCSRGYYNSPFAYWGQGTLVTVSS VL: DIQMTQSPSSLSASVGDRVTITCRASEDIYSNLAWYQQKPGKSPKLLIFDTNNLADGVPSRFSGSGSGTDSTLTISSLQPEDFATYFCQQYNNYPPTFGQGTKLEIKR . Reported Kd: 13
